assay.system: human Fpn (Homo sapiens, UniProt Q9NP59)
Construct: FLAG (C); made in house; host or cells: Pichia pastoris
Sequence (Q9NP59 whole entry): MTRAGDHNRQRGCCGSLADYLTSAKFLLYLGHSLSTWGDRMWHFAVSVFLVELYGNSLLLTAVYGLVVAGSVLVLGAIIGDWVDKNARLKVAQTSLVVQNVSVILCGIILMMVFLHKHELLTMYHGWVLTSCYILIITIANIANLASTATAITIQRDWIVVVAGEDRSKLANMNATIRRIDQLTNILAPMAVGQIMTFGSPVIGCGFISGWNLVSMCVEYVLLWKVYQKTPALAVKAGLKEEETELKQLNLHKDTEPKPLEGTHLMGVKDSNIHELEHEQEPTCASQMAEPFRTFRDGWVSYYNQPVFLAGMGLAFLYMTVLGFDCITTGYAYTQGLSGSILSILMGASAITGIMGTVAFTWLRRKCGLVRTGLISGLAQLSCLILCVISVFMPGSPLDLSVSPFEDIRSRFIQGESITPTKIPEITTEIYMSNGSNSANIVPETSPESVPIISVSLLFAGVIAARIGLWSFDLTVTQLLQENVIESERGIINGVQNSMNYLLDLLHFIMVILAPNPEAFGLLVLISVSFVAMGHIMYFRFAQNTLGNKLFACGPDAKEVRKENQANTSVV
measurement.protocol: Biophysical Ferroportin-Hepcidin Binding Assay (fluorescence polarization)
condition: average of multiple measurements; 1 μM human Fpn, 20 nM TMR-hepcidin; read-out: FP IC50
Examples of compounds with documented IC50 follow.
outcome.measure: IC50 (nM)

1) O=C(NCc1ncccc1F)c1coc(CCNCCc2nc3c(F)cc(F)cc3[nH]2)n1 [Example 249] | 44
2) O=C(NCc1cccnn1)c1coc(C2CN(CCc3nc4c(F)cccc4[nH]3)C2)n1 [Example 261] | 440
3) O=C(NCc1ccccc1)c1cccc(CCNCc2nc3ccccc3[nH]2)c1 [Example 67] | 3400
4) Cc1ccnc(CNC(=O)c2csc(CCNCc3nc4ccccc4[nH]3)n2)c1 [Example 106] | 4460
